The measured values listed here are drawn from patent US4451575A.

TEST: Acute Oral LD50
SETUP CONDITIONS: rat, in vivo
ASSAY READOUT: LD50 (mg/kg)
Entry rule: numbers only, all in mg/kg.

Ask: Read the entry O=C(OCC1(Cl)OC(Cl)C(Cl)C1Cl)C1(Cl)OC(Cl)C(Cl)C1Cl (stereo not shown) and write its reported LD50.
Reply: 1100
